The reported numbers originate from ChEMBL document CHEMBL4414638.

# Tested on: Escherichia coli
# test.details: Antibacterial activity against bioH gene deficient Escherichia coli assessed as reduction in bacterial growth at 0.1 to 100 uM incubated for 16 hrs
# Type: functional, organism-based
The source made the active and inactive calls. No cut-off for these calls is given here.
outcome.measure: Activity

1) O=C(CCC(=O)OC[C@@H](NC(=O)C(Cl)Cl)[C@H](O)c1ccc([N+](=O)[O-])cc1)NCC(=O)N[C@H](CO)C(=O)O inactive
2) O=C(O)CNC(=O)[C@@H](CO)NC(=O)CCC(=O)OC[C@@H](NC(=O)C(Cl)Cl)[C@H](O)c1ccc([N+](=O)[O-])cc1 inactive
3) NCCCC[C@H](NC(=O)[C@H](CCCCN)NC(=O)CCC(=O)OC[C@@H](NC(=O)C(Cl)Cl)[C@H](O)c1ccc([N+](=O)[O-])cc1)C(=O)O inactive
4) NCCCC[C@@H](NC(=O)[C@@H](CCCCN)NC(=O)CCC(=O)OC[C@@H](NC(=O)C(Cl)Cl)[C@H](O)c1ccc([N+](=O)[O-])cc1)C(=O)O inactive
